OBSERVED_PROPERTY: IC50

Report IC50 for Cc1cc2c(cc1N1C(=O)c3cccc4cc(N)cc(c34)C1=O)n(C)c(=O)n2C tested on Bromodomain-containing protein 4 (Homo sapiens, UniProt O60885).
> 9.95 µM

Given the entry COC1CCN(c2ccc3c4c(cccc24)C(=O)N(c2cc4c(cc2C)n(C)c(=O)n4C)C3=O)CC1 , what IC50 was observed with Bromodomain-containing protein 4 (Homo sapiens, UniProt O60885)?
> 14 µM

Reported IC50 for Bromodomain-containing protein 4 (Homo sapiens, UniProt O60885), given Cc1cc2c(cc1N1C(=O)c3cccc4cccc(c34)C1=O)n(C)c(=O)n2C ?
16.7 µM

Missing value: IC50, Bromodomain-containing protein 4 (Homo sapiens, UniProt O60885), entry Cc1cc2c(cc1N1C(=O)c3cccc4c(N5CCOCC5)ccc(c34)C1=O)n(C)c(=O)n2C . Fill in?
> 16.6 µM

# get_value(readout= IC50, system= Bromodomain-containing protein 4 (Homo sapiens, UniProt O60885)) for Cc1cc2c(cc1N1C(=O)c3cccc4c(Br)ccc(c34)C1=O)n(C)c(=O)n2C
> 9.5 µM

Form field: IC50 recorded for Cn1c(=O)n(C)c2cc(N3C(=O)c4cccc5cccc(c45)C3=O)c(Br)cc21 with Bromodomain-containing protein 4 (Homo sapiens, UniProt O60885) (enter value)
> 20 µM

Fill in the recorded IC50 for this compound, with Bromodomain-containing protein 4 (Homo sapiens, UniProt O60885) as test system: COc1cc2c(cc1N1C(=O)c3cccc4cccc(c34)C1=O)n(C)c(=O)n2C
> 10.8 µM

----------
- TARGET_OR_TEST_SYSTEM: Bromodomain-containing protein 1 (Homo sapiens, UniProt O95696)
- Sequence (O95696 whole entry): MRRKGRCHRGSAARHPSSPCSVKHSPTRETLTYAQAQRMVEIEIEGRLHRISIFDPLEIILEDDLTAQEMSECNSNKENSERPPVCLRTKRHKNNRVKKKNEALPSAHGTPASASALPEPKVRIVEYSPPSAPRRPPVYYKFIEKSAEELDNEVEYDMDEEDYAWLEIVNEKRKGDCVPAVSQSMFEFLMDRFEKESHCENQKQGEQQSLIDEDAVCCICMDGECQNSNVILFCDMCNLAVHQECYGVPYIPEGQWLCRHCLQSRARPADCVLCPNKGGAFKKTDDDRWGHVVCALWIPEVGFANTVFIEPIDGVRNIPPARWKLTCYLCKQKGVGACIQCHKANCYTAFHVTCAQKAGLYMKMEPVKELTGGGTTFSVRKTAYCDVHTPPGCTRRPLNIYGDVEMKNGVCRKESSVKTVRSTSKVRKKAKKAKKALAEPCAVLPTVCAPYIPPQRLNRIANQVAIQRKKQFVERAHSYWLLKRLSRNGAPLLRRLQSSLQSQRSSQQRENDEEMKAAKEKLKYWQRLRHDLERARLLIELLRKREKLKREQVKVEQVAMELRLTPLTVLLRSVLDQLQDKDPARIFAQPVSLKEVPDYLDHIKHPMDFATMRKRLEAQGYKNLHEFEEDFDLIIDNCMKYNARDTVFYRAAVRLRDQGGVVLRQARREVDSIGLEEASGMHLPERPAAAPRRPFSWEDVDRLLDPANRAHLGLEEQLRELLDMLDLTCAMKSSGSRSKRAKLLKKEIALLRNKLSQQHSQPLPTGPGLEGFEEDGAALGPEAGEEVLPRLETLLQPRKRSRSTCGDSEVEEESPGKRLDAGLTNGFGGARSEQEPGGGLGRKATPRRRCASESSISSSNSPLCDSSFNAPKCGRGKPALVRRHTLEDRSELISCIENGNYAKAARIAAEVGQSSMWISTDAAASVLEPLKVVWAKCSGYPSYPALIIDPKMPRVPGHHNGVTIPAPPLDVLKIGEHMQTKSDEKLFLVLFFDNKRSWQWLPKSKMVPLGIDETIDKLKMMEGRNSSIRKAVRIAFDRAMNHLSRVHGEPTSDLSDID
- TEST: Inhibition of human BRPF2 (563 to 688 residues) expressed in Escherichia coli BL21 (DE3)-R3-pRARE2 using biotin-acetylated histone H4 peptide as substrate after 30 mins by AlphaScreen assay
pIC50: −log10 of the molar value.
OBSERVED_PROPERTY: pIC50

// map Cn1c(=O)[nH]c2cc(N3C(=O)c4cccc5c(CCCO)ccc(c45)C3=O)ccc21 to recorded pIC50 (system: Bromodomain-containing protein 1 (Homo sapiens, UniProt O95696))
< 4.70

All values here come from ChEMBL document CHEMBL4049437.
